Task for the reader: assign each of the following binders its reported SPOT peptide array binding signal intensity.
target: AgMyo5; test: SPOT peptide array binding signal intensity (averaged, normalized) (arbitrary units (background-subtracted, floor 0; scale differs between SH3 domains)); higher = stronger binding of the SH3 domain to the peptide

Prompt line: Quick one: SPOT peptide array binding signal intensity of QNTPPLPPKPKSPHL ?
Response line: ≤ 0

Prompt line: So what does the record say about SPOT peptide array binding signal intensity for ITHRLRISIPGITGR ?
Response line: ≤ 0

Prompt line: // returns reported SPOT peptide array binding signal intensity for input VQQDSLPKLPFRSWG
Response line: ≤ 0

Prompt line: Bench note: what SPOT peptide array binding signal intensity did GERSRPLVISILSSA show?
Response line: ≤ 0

Prompt line: Using the record for IVNKPLPPLPVAGSS , report its SPOT peptide array binding signal intensity.
Response line: ≤ 0

Prompt line: // returns reported SPOT peptide array binding signal intensity for input NLDRSKISLPDFDDE
Response line: ≤ 0

Prompt line: Form field: reported SPOT peptide array binding signal intensity of IAPIPMPKPNPTHIS
Response line: ≤ 0

Each recorded value in this set is attributed to the supplement of paper PMC4466140.
